Values were extracted from patent US7196110B2.

# experimental-system: PDGF-receptor beta enzyme comprising the tyrosine kinase domain (Homo sapiens, UniProt P09619)
# Construct: from amino acid 545 to 1106 of GenBank Access NO: AAA36427
# Sequence (P09619 545-1106): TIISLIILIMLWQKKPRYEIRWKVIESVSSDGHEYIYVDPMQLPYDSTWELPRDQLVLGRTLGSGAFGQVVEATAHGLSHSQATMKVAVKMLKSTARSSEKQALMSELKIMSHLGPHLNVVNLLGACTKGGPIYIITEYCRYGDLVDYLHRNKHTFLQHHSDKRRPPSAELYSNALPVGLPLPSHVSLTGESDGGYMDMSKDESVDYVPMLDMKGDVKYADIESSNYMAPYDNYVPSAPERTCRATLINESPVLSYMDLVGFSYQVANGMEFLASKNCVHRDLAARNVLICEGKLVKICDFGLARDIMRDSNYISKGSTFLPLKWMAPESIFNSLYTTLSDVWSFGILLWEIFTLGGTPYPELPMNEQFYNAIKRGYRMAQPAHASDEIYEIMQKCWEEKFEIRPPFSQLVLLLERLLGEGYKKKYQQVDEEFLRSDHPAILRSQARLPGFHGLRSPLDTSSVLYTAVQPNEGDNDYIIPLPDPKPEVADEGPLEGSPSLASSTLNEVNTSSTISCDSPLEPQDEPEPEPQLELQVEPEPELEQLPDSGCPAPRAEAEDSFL
# assay-summary: Inhibition of PDGF-receptor kinase activity (cell-free, PLC1 peptide, 33P Flashplate)
# Format: biochemical
# conditions-used: PDGF-R kinase activity; read-out: IC50
Consider the following molecules and their measured log10 IC50 readings.
readout-kind: log10 IC50 (log10 of the value in nM)

{"molecule": "COc1ccc(OC)c(CNc2[nH]nc3c2Cc2ccc(C)cc2-3)c1", "log10 IC50": 3.69}
{"molecule": "COc1cc2c(cc1OCC(O)CO)Cc1c-2n[nH]c1NCc1ccccc1Cl (stereo not drawn)", "log10 IC50": 0.30}
{"molecule": "COc1cc2c(cc1OCCCO)Cc1c-2n[nH]c1Nc1cccc(Cl)c1", "log10 IC50": 0.05}
{"molecule": "COc1cc2c(cc1OC)-c1n[nH]c(NCc3cccc(Cl)c3)c1C2", "log10 IC50": 1.90}
{"molecule": "COc1cc2c(cc1F)Cc1c-2n[nH]c1NCc1ccccc1F", "log10 IC50": 2.38}
{"molecule": "COc1cc2c(cc1OC)-c1n[nH]c(Nc3cc(OC)c(OC)c(OC)c3)c1C2", "log10 IC50": 2.84}
{"molecule": "COc1cc2c(cc1OC)C(C)c1c(Nc3cccc(Br)c3)nn(C(=O)OCCOCCOCCO)c1-2 (stereo not drawn)", "log10 IC50": 2.33}
{"molecule": "COc1cc(Nc2[nH]nc3c2Cc2cc(OC)c(OC)cc2-3)cc(OC)c1", "log10 IC50": 1.53}
{"molecule": "COc1cc2c(cc1F)Cc1c-2n[nH]c1Nc1ccc(F)cc1", "log10 IC50": 1.06}
{"molecule": "COc1cccc2c1Cc1c-2n[nH]c1Nc1cccc(F)c1", "log10 IC50": 1.47}
{"molecule": "COc1cc2c(cc1OC)-c1n[nH]c(Nc3ccc(C(F)(F)F)cc3)c1C2", "log10 IC50": 3.68}
{"molecule": "OCC(O)COc1cccc2c1Cc1c-2n[nH]c1NCc1c(Cl)cccc1Cl (stereo not drawn)", "log10 IC50": 2.80}
{"molecule": "COc1cc2c(cc1F)Cc1c-2n[nH]c1Nc1cccnc1", "log10 IC50": 1.18}
{"molecule": "COc1cc2c(cc1OC)-c1n[nH]c(Nc3cc(Cl)ccc3C)c1C2", "log10 IC50": 4.15}
{"molecule": "COc1cc2c(cc1OC)-c1c(c(Nc3cccc(F)c3)nn1COC(=O)C(C)(C)C)C2", "log10 IC50": 2.03}
{"molecule": "OCCCOc1cc2c(cc1OCCCO)-c1n[nH]c(Nc3ccc(F)c(Cl)c3)c1C2", "log10 IC50": 1.18}
{"molecule": "COc1cc2c(cc1OCCCO)Cc1c-2n[nH]c1NCc1ccccc1F", "log10 IC50": 1.04}
{"molecule": "COc1cc2c(cc1OC)-c1n[nH]c(Nc3cccc(SC)c3)c1C2", "log10 IC50": 0.48}
